Molecular target: T1, recombinant human CD70 (AviTag, polyhistidine tag and chicken tenascin trimerization domain fused to the … (chicken; human, UniProt P10039 110-139, limits assumed)
T1 construct: domain: trimerization domain; Expressed in Expi293, purified by IMAC and SEC; Copies 3 is inferred from the trimerization domain; not shown: AviTag; polyhistidine tag
T1 sequence: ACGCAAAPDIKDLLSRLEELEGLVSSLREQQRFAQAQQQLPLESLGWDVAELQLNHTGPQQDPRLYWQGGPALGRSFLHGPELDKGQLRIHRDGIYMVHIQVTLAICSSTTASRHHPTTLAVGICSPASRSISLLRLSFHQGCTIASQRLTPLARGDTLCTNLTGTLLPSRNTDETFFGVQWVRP
Experiment: SPR (Biacore 8K, 37 C): CD70 captured via anti-AviTag antibody on C1 chip, scFv-Fc as analyte; 1:1 Langmuir fit
reportedProperty: kon (M⁻¹ s⁻¹)
Report as a plain number; the unit M⁻¹ s⁻¹ is understood.

Illustrative cases are given below, each with its answer.
binder: P12B09 anti-CD70 scFv-Fc fusion (Fc fusion, scFv-Fc expressed in Expi293; not shown: part of the hinge and Fc from a modified human IgG2) EVQLLESGGGLVQPGGSLRLSCAASGFTFSQYSMSWVRQAPGKGLEWVSAISGGGVSTYYADSVKGRFTISRDNSKNTLYLQMNSLRAEDTAVYYCASDISDSGGSHWYFDYWGQGTLVTVSSGGGGSGGGGSGGGGSGGGGSELDIQMTQSPSSLSASVGDRVTITCRASQYIGRYLNWYQQKRGKAPKLLIHGATSLASGVPSRFSGSGSGTDFTLTISSLQPEDFATYYCQQSYSTTSPTFGQGTKVEIK
reportedProperty: kon
readoutUnit: M⁻¹ s⁻¹
endpointResult: 330000
--
binder: 9E10 anti-CD70 scFv-Fc fusion (Fc fusion, scFv-Fc expressed in Expi293; not shown: part of the hinge and Fc from a modified human IgG2) QVQLVQSGAEVTKPGASVKVSCKASGYTFTSHYIYWVRQAPGQGLEWMGWINPNSGGTNYAQKFQDRVTMARDTSISTAYMELSRLRSDDTAVYYCAKDRKREYYYNFGMDVWGQGTTVTVSAGGGGSGGGGSGGGGSGGGGSDIQMTQSPSSLSASVGDRVILTCQASQDISNYLHWYQQKPGKAPKLLIYDASDLETGVPSRFSGSGSGADFTFTISNLQPEDFATYYCQQYDHLPITFGQGTRLEIK
reportedProperty: kon
readoutUnit: M⁻¹ s⁻¹
endpointResult: 825000

Lab note: next binder to report on.
Ask: Which kon value belongs to P12F02 anti-CD70 scFv-Fc fusion (Fc fusion, scFv-Fc expressed in Expi293; not shown: part of the hinge and Fc from a modified human IgG2) EVQLLESGGGLVQPGGSLRLSCAASGFTFSSYAMSWVRQAPGKGLEWVSTISGTGGTTYYADSVKGRFTISRDNSKNTLYLQMNSLRAEDTAVYYCAKVRAGIDPTASDVWGQGTLVTVSSGGGGSGGGGSGGGGSGGGGSELQSVLTQPPSASGTPGQRVTISCSGSTSNIGRNYVYWYQQLPGTAPKLLIYRTNQRPSGVPDRFSGSKSGTSASLAISGLRSEDEADYYCAAWDDSLSGRVFGTGTKLTVL ?
Reply: 275000
